FYI, the data here is from ChEMBL document CHEMBL3244135.

Species on record: Rattus norvegicus
Test: Binding affinity to prostanoid receptor in Holtzman rat lipocytes assessed as compound equivalent to 1 ng cold PGE1 in displacing [3H]-PGE1 from receptor after 30 mins
Assay type: cell-based
Details: in the assay text read “after 60 mins” for “after 30 mins”
Listed here are compounds together with their documented Activity.
API: value field is a number in µgequiv; no unit string.

// known answers, use as guide
[
  {
    "compound": "CCCCCCC(O)CCC(CCCCCCC(=O)O)C(C)=O (configuration not stated)",
    "Activity (µgequiv)": 41
  },
  {
    "compound": "CCCCCC(O)CCCC(CCCCCCC(=O)O)C(C)O (configuration not stated)",
    "Activity (µgequiv)": 2.5
  },
  {
    "compound": "CCCC(O)CCCCCC(CCCCCCC(=O)O)C(C)=O (configuration not stated)",
    "Activity (µgequiv)": 65
  },
  {
    "compound": "CCCCCC(O)CCCC(CCCCCCC(=O)O)C(=O)CC (configuration not stated)",
    "Activity (µgequiv)": 2.4
  },
  {
    "compound": "CCCCC[C@@H](O)CCCC(CCCCCCC(=O)O)C(C)=O (some centres not stated)",
    "Activity (µgequiv)": 2.1
  },
  {
    "compound": "CCCCCC(O)/C=C/CC(CCCCCCC(=O)O)C(C)=O (configuration not stated)",
    "Activity (µgequiv)": 3.2
  },
  {
    "compound": "CCCCCC(O)CCCC(CCCCCCC(=O)O)C(C)=O (mixture of isomers)",
    "Activity (µgequiv)": 1.7
  },
  {
    "compound": "CCCCCCCC(O)CCCC(CCCCCCC(=O)O)C(C)=O (configuration not stated)",
    "Activity (µgequiv)": 6.6
  }
]

Input line: Fill in reported Activity for this entry: CC(=O)C(CCCCO)CCCCCCC(=O)O (configuration not stated)
Output line: 450

Input line: Fill in reported Activity for this entry: CCCCCC(O)CCCC(CO)CCCCCCC(=O)O (configuration not stated)
Output line: 4.6
